# reported selectivity ratio; entries follow
- assayDetails: Selectivity index, ratio of CC50 for mouse RAW264.7 cells to MIC for antimycobacterial activity against Mycobacterium tuberculosis H37Rv ATCC 27294
- Type: toxicity
- conditionDetails: read-out: Selectivity Index
measurementType: selectivity ratio

CC(=O)OC[C@H]1O[C@H](OC[C@H](Cn2cc(COc3ccc(-c4noc(C)n4)cc3)nn2)OC(C)=O)C=C[C@@H]1OC(C)=O    < 1.74
CC(=O)OC[C@H]1O[C@H](OC[C@@H](Cn2cc(CN(c3nc(-c4ccc(C(F)(F)F)cc4)no3)C3CCCCC3)nn2)OC(C)=O)C=C[C@@H]1OC(C)=O    < 1
C#CCN(c1nc(-c2ccccc2)no1)C1CCCCC1    < 0.5
